# tested system: RIPK2 enzyme (Homo sapiens)
# Construct: purchased Carna 09-128
# assay text: RIPK2 inhibition (ADP-Glo Kinase Assay)
# Type: biochemical
# test conditions: RIPK2 5 nM, ATP 150 μM, MBP substrate, read-out: RIPK2 IC50
# Experimental: RIPK2 inhibition was measured as follows: The V9102 ADP-Glo Kinase Assay (including ultrapure ATP, 10 mM) was purchased from Promega. […] Method: In a 384 well plate, 10 nL of test compound was dispensed using Echo550 and mixed with RIPK2 enzyme (final concentration of 5 nM) in assay buffer for 30 minutes at room temperature. […] The resulting luminescent signal was measured with an Envision reader to determine the amount of ADP produced. […]
Counter-ions that a name gives are not always drawn.
measured property: IC50

Please review the following examples before continuing.
Cc1cc(CC(=O)Nc2cnn(C(C)(C)C)c2)ccc1Oc1ncnc2ccc(OC3CCN(CC(F)F)CC3)cc12 [Compound 178]	5 nM
Cc1c(Oc2ccnc3ccc(N4CCCS4(=O)=O)cc23)ccc(CC(=O)Nc2cnn(C(C)(C)C)c2)c1F [Compound 279]	< 2.5 nM
Cc1cc(CC(=O)Nc2cnn(C(C)(C)C)c2)c(F)cc1Oc1ccnc2ccc(S(=N)(=O)C3CC3)cc12 (single isomer, unassigned) [Compound 466]	< 2.5 nM

Exercise: So what does the record say about IC50 for CC(C)(C)n1cc(NC(=O)Cc2ccc(Oc3ncnc4ccc(OC5CCNCC5)cc34)c(Cl)c2)cn1 [Compound 158] ?
Key: < 2.5 nM

Exercise: Next: Cc1cc(CC(=O)Nc2cnn(C(C)(C)C)c2)c(F)cc1Oc1ccnc2ccc(C(=O)N(C)C)cc12 [Compound 361]
Key: < 2.5 nM

Exercise: Next: COc1cc2nccc(Oc3cc(F)c(CC(=O)Nc4cnn(C(C)(C)C)c4)cc3C)c2cc1C(N)=O [Compound 436]
Key: < 2.5 nM

Exercise: Next: Cc1cc(CC(=O)Nc2cnn(C(C)(C)C)c2)ccc1Oc1ccnc2ccc(S(=N)(=O)C3CCC3)cc12 (single isomer, unassigned) [Compound 551]
Key: < 2.5 nM

Exercise: Next: Cc1c(Oc2ccnc3ccc(C(=O)N4CCC4)cc23)ccc(CC(=O)Nc2cnn(C(C)(C)C)c2)c1F [Compound 344]
Key: < 2.5 nM

Exercise: Next: CNC(=O)C1(c2ccc3nccc(Oc4cc(F)c(CC(=O)Nc5cnn(C(C)(C)C)c5)cc4C)c3c2)CC1 [Compound 571, formic acid salt]
Key: 2.9 nM

Exercise: Next: Cc1c(Oc2ccnc3ccc([S+](C)[O-])cc23)ccc(CC(=O)Nc2cnn(C(C)(C)C)c2)c1F (single isomer, unassigned) [Compound 323]
Key: < 2.5 nM

Exercise: Next: CNC(=O)c1cc2c(Oc3cc(F)c(CC(=O)Nc4cnn(C(C)(C)C)c4)cc3C)ccnc2cc1C [Compound 564]
Key: < 2.5 nM

Exercise: Next: Cc1cc(CC(=O)Nc2cnn(C(C)(C)C)c2)c(F)cc1Oc1ccnc2ccc(-c3c(C)ncnc3C)cc12 [Compound 526]
Key: < 2.5 nM

Exercise: Next: Cc1c(Oc2ccnc3ccc(S(=O)(=O)N4C[C@@H](C)O[C@@H](C)C4)cc23)ccc(CC(=O)Nc2cnn(C(C)(C)C)c2)c1F [Compound 386]
Key: < 2.5 nM

Exercise: Next: Cc1cc(CC(=O)Nc2cnn(C(C)(C)C)c2)c(F)cc1Oc1ccnc2ccc(C(=O)NC(C)(C)C)cc12 [Compound 456]
Key: < 2.5 nM

Exercise: Next: CNC(=O)c1ccc2nccc(Oc3c(C)cc(CC(=O)Nc4cnn(C(C)(C)C)c4)cc3Cl)c2c1 [Compound 515]
Key: < 2.5 nM

Exercise: Next: CNC(=O)c1cc2c(Oc3cc(F)c(CC(=O)Nc4cnn(C(C)(C)C)c4)cc3C)ccnc2cc1F [Compound 435]
Key: < 2.5 nM

Exercise: Next: Cc1cc(CC(=O)Nc2cnn(C(C)(C)C)c2)ccc1Oc1ccnc2ccc(S(=O)(=O)C(C)(C)CO)cc12 [Compound 310]
Key: < 2.5 nM

Exercise: Next: Cc1c(Oc2ccnc3ccc(NS(C)(=O)=O)cc23)ccc(CC(=O)Nc2cnn(C(C)(C)C)c2)c1F [Compound 277]
Key: < 2.5 nM

Exercise: Next: Cc1cc(CC(=O)Nc2noc(C(C)(C)C)n2)ccc1Oc1ncnc2ccc(OC3CCN(C)CC3)cc12 [Compound 184]
Key: 3 nM

Exercise: Next: COc1ccc2ncnc(Oc3ccc(CC(=O)Nc4cnn(C(C)(C)C)c4)c(F)c3F)c2c1 [Compound 47]
Key: 3.9 nM

Exercise: Next: CCN1CCC(Oc2ccc3ncnc(Oc4ccc(CC(=O)Nc5cnn(C(C)(C)C)c5)cc4Cl)c3c2)CC1 [Compound 160]
Key: < 2.5 nM

Exercise: Next: Cc1cc(CC(=O)Nc2cnn(C(C)(C)C)c2)ccc1Oc1ccnc2ccc([S+](C)[O-])cc12 (single isomer, unassigned) [Compound 322]
Key: < 2.5 nM

Exercise: Next: Cc1c(Oc2ccnc3ccc(S(=O)(=O)N4CCC4)cc23)ccc(CC(=O)Nc2cnn(C(C)(C)C)c2)c1F [Compound 271]
Key: < 2.5 nM

Exercise: Next: Cc1c(Oc2ccnc3ccc(S(=O)(=O)C4CNC4)cc23)ccc(CC(=O)Nc2cnn(C(C)(C)C)c2)c1F [Compound 315]
Key: < 2.5 nM

Exercise: Next: Cc1cc(CC(=O)Nc2cnn(C(C)(C)C)c2)ccc1Oc1ccnc2ccc(OCC(C)(C)O)cc12 [Compound 226]
Key: < 2.5 nM

Exercise: Next: COc1ccc2ncnc(Oc3ccc(CC(=O)Nc4cc(C(C)(C)CO)[nH]n4)c(F)c3)c2c1 [Compound 15]
Key: 34.9 nM

Exercise: Next: Cc1cc(CC(=O)Nc2noc(C(C)(C)C)n2)ccc1Oc1ncnc2ccc(OC3CCNCC3)cc12 [Compound 183]
Key: < 2.5 nM

Exercise: Next: COCCN(C)C(=O)c1ccc2nccc(Oc3ccc(CC(=O)Nc4cnn(C(C)(C)C)c4)c(F)c3C)c2c1 [Compound 343]
Key: < 2.5 nM

====

# key: entry, value: IC50
# tested system: RIPK2 enzyme (Homo sapiens)
# Construct: purchased Carna 09-128
# assay text: RIPK2 inhibition (ADP-Glo Kinase Assay)
# Type: biochemical
# test conditions: RIPK2 5 nM, ATP 150 μM, MBP substrate, read-out: RIPK2 IC50

Cc1cc(CC(=O)Nc2cnn(C(C)(C)C)c2)ccc1Oc1ccnc2ccc(OCC(C)O)cc12 (single isomer, unassigned) [Compound 225]	< 2.5 nM
CNC(=O)c1cc2c(Oc3c(C)cc(CC(=O)Nc4cnn(C(C)(C)C)c4)cc3F)ccnc2cc1F	< 2.5 nM

Exercise: So what does the record say about IC50 for Cc1cc(CC(=O)Nc2cnn(C(C)(C)C)c2)ccc1Oc1ccnc2ccc(C(O)C(N)=O)cc12 (single isomer, unassigned) ?
Key: < 2.5 nM

====

# key: entry, value: IC50
# tested system: RIPK2 enzyme (Homo sapiens, UniProt O43353)
# Construct: purchased Carna 09-128
# Sequence (O43353 1-299 limits assumed): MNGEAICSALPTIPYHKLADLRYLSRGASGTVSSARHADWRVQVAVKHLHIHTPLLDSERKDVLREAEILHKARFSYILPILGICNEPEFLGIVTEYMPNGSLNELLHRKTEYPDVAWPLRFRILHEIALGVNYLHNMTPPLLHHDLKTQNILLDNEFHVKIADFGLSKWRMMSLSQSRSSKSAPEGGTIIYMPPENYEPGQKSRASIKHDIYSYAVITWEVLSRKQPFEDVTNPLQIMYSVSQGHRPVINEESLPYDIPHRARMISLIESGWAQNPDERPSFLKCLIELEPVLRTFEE
# assay text: RIPK2 inhibition (ADP-Glo Kinase Assay)
# Type: biochemical
# test conditions: RIPK2 5 nM, ATP 150 μM, MBP substrate, read-out: RIPK2 IC50

Cc1cc(CC(=O)Nc2cnn(C(C)(C)C)c2)ccc1Oc1ccnc2ccc(S(=O)(=O)C3CCOC3)cc12 (single isomer, unassigned) [Compound 199]	< 2.5 nM
Cc1cc(CC(=O)Nc2cc(C(C)(C)C)n(C)n2)ccc1Oc1ccnc2ccc(S(C)(=O)=O)cc12	< 2.5 nM

Exercise: So what does the record say about IC50 for Cc1cc(CC(=O)Nc2cnn(C(C)(C)C)c2)ccc1Oc1ccnc2ccc(S(=O)(=O)C3CC(O)C3)cc12 (stereo not shown) ?
Key: < 2.5 nM

Exercise: Next: CC(C)(C)n1cc(NC(=O)Cc2ccc(Oc3ncnc4ccc(OCCN5CCCC5)cc34)cc2F)cn1
Key: 27.4 nM

====

# tested system: RIPK2 and XIAP protein-protein interaction (Homo sapiens, UniProt O43353)
# Construct: the N-terminus of full-length RIPK2 was appended with the HaloTag fusion protein
# Sequence (O43353 whole entry, the tested form may be a part): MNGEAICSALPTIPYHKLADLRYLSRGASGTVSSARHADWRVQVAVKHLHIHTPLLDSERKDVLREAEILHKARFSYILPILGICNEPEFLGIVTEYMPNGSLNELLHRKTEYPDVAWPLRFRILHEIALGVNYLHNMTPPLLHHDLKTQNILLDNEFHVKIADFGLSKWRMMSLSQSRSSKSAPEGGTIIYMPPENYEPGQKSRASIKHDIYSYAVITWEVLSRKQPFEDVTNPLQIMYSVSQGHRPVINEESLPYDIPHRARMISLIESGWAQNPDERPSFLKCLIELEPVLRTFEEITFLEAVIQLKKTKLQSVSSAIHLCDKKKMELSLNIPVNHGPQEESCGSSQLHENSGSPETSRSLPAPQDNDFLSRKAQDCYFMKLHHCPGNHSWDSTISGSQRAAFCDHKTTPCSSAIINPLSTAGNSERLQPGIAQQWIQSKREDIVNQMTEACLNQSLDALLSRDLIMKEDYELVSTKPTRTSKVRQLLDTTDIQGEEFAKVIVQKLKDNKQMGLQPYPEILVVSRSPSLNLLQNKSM
# assay text: Inhibition of the interaction of RIPK2 with XIAP (NanoBRET in HEK293T cells)
# test conditions: RIPK2 HaloTag / XIAP NanoLuc, read-out: NanoBRET Scaffolding IC50
pIC50: −log10 of the molar value.
measured property: pIC50

[2H]C([2H])([2H])NC(=O)c1ccc2nccc(Oc3cc(F)c(CC(=O)Nc4cnn(C56CC(C5)C6)c4)c(F)c3C)c2c1 [Compound 558]	7.24
Cc1cc(CC(=O)Nc2cnn(C(C)(C)C)c2)ccc1Oc1ncnc2ccc(OC3CCN(C)CC3)cc12 [Compound 84]	7.43
CC(C)(C)n1cc(NC(=O)Cc2cc(Cl)c(Oc3ccnc4ccc(S(C)(=O)=O)cc34)cc2F)cn1 [Compound 429]	7.36
Cc1cc(CC(=O)Nc2cnn(C(C)(C)C)c2)c(F)cc1Oc1ccnc2ccc(C(F)(F)C(N)=O)cc12 [Compound 572]	7.43
CNC(=O)c1cc2c(Oc3c(C)cc(CC(=O)Nc4cnn(C(C)(C)C)c4)cc3Cl)ccnc2cc1F [Compound 585]	7.53
Cc1cc(CC(=O)Nc2cnn(C(C)(C)C)c2)c(F)cc1Oc1ccnc2ccc(-c3c[nH]nc3C)cc12 [Compound 479]	8.24
Cc1cc(CC(=O)Nc2cnn(C34CC(C3)C4)c2)ccc1Oc1ccnc2ccc(S(C)(=O)=O)cc12 [Compound 239]	7.70
Cc1cc(CC(=O)Nc2cnn(C(C)(C)C)c2)c(F)cc1Oc1ccnc2ccc(S(C)(=O)=O)cc12 [Compound 113]	7.48
Cc1c(Oc2ccnc3ccc(C(N)=O)cc23)cc(F)c(CC(=O)Nc2cnn(C34CC(C3)C4)c2)c1F [Compound 556]	7.38
CNC(=O)c1ccc2nccc(Oc3cc(F)c(CC(=O)Nc4cnn(C56CC(C5)C6)c4)cc3C)c2c1 [Compound 502]	7.76

(1) CC(C)(C)n1cc(NC(=O)Cc2cc(Cl)c(Oc3ccnc4ccc(C(N)=O)cc34)cc2F)cn1 [Compound 497]
(2) CNC(=O)c1ccc2nccc(Oc3c(C)cc(CC(=O)Nc4cnn(C(C)(C)C)c4)cc3Cl)c2c1 [Compound 515]
(3) Cc1cc(CC(=O)Nc2cnn(C34CC(C3)C4)c2)ccc1Oc1ccnc2ccc(C(N)=O)cc12 [Compound 499]
(4) Cc1cc(CC(=O)Nc2cnn(C34CC(C3)C4)c2)c(F)cc1Oc1ccnc2ccc(C(N)=O)cc12 [Compound 501]
Exercise: List the 4 entries from lowest pIC50 to highest pIC50 value. Please list each label once, in the requested order.
Key: 2, 4, 3, 1

(1) Cc1cc(CC(=O)Nc2cnn(C(C)(C)C)c2)ccc1Oc1ccnc2ccc(S(=N)(=O)C(C)C)cc12 (single isomer, unassigned) [Compound 547]
(2) Cc1cc(CC(=O)Nc2cnn(C(C)(C)C)c2)cc(C)c1Oc1ccnc2cc(F)c(C(N)=O)cc12 [Compound 581]
(3) Cc1cc(CC(=O)Nc2cnn(C(C)(C)C)c2)ccc1Oc1ccnc2ccc(OC3CCNCC3)cc12 [Compound 83]
Exercise: List the 3 entries from lowest pIC50 to highest pIC50 value. Please list each label once, in the requested order.
Key: 1, 2, 3
(1: 6.82, 2: 7.21, 3: 7.54)
